Experiment: modulators of MEP2-GFP levels in yeast, confirmation, S. cerevisiae, flow cytometry GFP, cherry picks (AID 2272);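 further: ratio of well signal to plate DMSO mean so 100% equals DMSO level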
Conditions: S. cerevisiae MEP2-GFP strain, 3 h, at 10 µM, hits give high values
resultType: GFP response vs DMSO (%)
One number for each entry, in %.

Example compounds with recorded GFP response vs DMSO:
O=C(O)Cc1sc(Nc2ccc(F)cc2)nc1-c1cccs1
110
O=C(OCC(=O)N1CCN(C(=O)c2ccco2)CC1)c1cc(-c2ccccc2)nc2ccccc12
130
C=CCNC(=S)N/N=C(\C)c1cccc(OC)c1
99.5
O=C(Nc1ccc(Cl)cc1Cl)c1cccc(N2C(=O)C=CC2=O)c1
111
CC(C)c1ccc2c(c1)C1(NN=C(c3ccccc3)S1)C(=O)N2 (stereo unspecified)
100

Answer for every listed entry: what is its GFP response vs DMSO? The entries follow.
1. O=C(NNC1=NCCC1)c1cccc(Br)c1
2. COc1cc(NC(=O)c2cccc([N+](=O)[O-])c2)ccc1NC(=O)c1cc2ccccc2o1
3. Cc1nn2c(NCCCN3CCOCC3)c3c(nc2c1-c1ccccc1)CCC3
4. COc1ccc(-c2nc(NC(=O)c3cc(C(C)(C)C)nn3C)sc2C)cc1
5. O=C1c2ccsc2SCCN1Cc1ccccc1

output:
1. 99.5
2. 101
3. 99
4. 103
5. 94.1
